# target-of-assay: T1, human CD3 on human T cells (Jurkat) (human, UniProt P07766 23-207; P04234 22-171; P09693 23-182)
# T1 construct: whole, on cells; also called huCD3+; cell surface CD3 on human (Jurkat) T cells
# T1 sequence (P07766 23-207, chain 1 of 3): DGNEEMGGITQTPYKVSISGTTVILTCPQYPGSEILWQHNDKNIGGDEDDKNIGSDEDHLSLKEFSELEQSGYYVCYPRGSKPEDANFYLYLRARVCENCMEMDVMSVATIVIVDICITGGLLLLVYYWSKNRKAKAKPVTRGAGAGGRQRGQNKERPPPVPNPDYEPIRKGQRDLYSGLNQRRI
# T1 sequence (P04234 22-171, chain 2 of 3): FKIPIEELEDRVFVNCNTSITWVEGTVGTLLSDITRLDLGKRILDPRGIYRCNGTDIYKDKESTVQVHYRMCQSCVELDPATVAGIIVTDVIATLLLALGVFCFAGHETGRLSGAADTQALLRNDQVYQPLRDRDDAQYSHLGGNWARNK
# T1 sequence (P09693 23-182, chain 3 of 3): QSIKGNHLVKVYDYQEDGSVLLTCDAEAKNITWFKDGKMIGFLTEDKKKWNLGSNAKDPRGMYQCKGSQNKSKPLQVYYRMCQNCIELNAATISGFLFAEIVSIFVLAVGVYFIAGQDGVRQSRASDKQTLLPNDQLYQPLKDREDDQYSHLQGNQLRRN
# experiment-summary: flow cytometry, Jurkat cells, 0 nM antibody (background)
Listed below: MFI values for each entry.
Enter the number alone.

The value of MFI measured for the binder HuL1H1 (Fab, V domains shown, Detected with anti-human kappa; also called VL1 + VH1 humanized Fab) VH: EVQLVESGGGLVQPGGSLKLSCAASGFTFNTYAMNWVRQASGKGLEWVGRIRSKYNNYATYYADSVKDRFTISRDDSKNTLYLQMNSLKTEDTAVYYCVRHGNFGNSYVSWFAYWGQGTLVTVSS VL: QAVVTQEPSLTVSPGGTVTLTCGSSTGAVTTSNYANWFQQKPGQAPRTLIYGTNKRAPWTPARFSGSLLGGKAALTISGAQPEDEAEYYCALWYSNLWVFGGGTKLTVL turned out to be 1400

The value of MFI measured for the binder Murine anti-CD3 (antibody, V domains shown, also called murine anti-CD3 VL/VH) VH: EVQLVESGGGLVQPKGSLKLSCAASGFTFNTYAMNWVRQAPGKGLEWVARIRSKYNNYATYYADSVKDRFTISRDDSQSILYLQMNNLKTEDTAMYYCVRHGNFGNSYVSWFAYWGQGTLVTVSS VL: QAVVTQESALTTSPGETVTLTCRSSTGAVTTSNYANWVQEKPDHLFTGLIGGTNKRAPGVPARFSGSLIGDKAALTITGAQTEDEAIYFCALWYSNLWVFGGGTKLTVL turned out to be 1400

The value of MFI measured for the binder HuL10H2 (Fab, V domains shown, Humanized Fab expressed in Expi293F; also called VL10 + VH2 humanized Fab) VH: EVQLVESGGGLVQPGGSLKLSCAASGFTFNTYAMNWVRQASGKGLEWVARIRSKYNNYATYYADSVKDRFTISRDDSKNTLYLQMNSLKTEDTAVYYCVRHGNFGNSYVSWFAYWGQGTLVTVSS VL: QAVVTQEPSLTTSPGGTVTLTCRSSTGAVTTSNYANWVQQKPDHLFTGLIGGTNKRAPGVPARFSGSLIGDKAALTISGAQPEDEAEYYCALWYSNLWVFGGGTKLTVL turned out to be 559
